Let's look at some molecules and their measured Cynomolgus Primary Hepatocytes-% Editing.
# Test system: PCSK9 gene
# assay.name: PCSK9 gRNA/SpCas9 editing in primary cynomolgus hepatocytes (Tables 2, 22)
# Assay type: cell-based, cynomolgus monkey
# condition.context: SpCas9 mRNA MS002, 2500 ng/test article/mL, rep1
In the oligonucleotide strings, read from the 5' end, every base follows the letter of its sugar. An asterisk marks phosphorothioate; unmarked linkages are phosphodiester. Other units and linkages are bracketed, terminal groups are in braces. A string of capitals states the bases alone. m = 2'-O-methyl; r = 2'-OH (RNA)
Report as a plain number; the unit % is understood.

1. GA408 (nucleic acid) guide: mU*mC*mA*rGrCrUrCrCrArGrGrCrGrGrUrCrCrUrGrGmGrUrUrUrUrArGmAmGmCmUmAmGmAmAmAmUmAmGmCmAmArGrUrUmArAmArAmUrAmAmGmGmCmUmArGrUmCmCrGrUrUrAmUmCrArAmCmUmUmGmAmAmAmAmAmGmUmGrGmCmAmCmCmGmAmGmUmCmGmGmUmGmCmU*mU*mU*mUmUrUmU	50.4
2. GA406 (nucleic acid, listed as RNA; modified_base 1: mod_base = OTHER; note = 2'-O-Methyl-uridine phosphorothioate; modified_base 2: mod_base = OTHER; note = 2'-O-Methyl-cytidine phosphorothioate; modified_base 3: mod_base = OTHER; note = 2'-O-Methyl-adenosine phosphorothioate;) guide: TCAGCTCCAGGCGGTCCTGGGTTTTAGAGCTAGAAATAGCAAGTTAAAATAAGGCTAGTCCGTTATCAACTTGAAAAAGTGGCACCGAGTCGGTGCTTTTTTT	57.17

# ---- query molecule ----
Reported Cynomolgus Primary Hepatocytes-% Editing for GA401 (nucleic acid) guide: mU*mC*mA*rGrCrUrCrCrArGrGrCrGrGrUrCrCrUrGrGmGrUrUrUrUrArGmAmGmCmUmAmGmAmAmAmUmAmGmCmAmArGrUrUmArAmArAmUrAmAmGmGmCmUmArGrUmCmCrGrUrUrAmUmCrArAmCmUmUmGmAmAmAmAmAmGmUmGrGmCmAmCmCmGmAmGmUmCmGmGmUmGmCmU*mU*mU*mUmUmUmU : what is it?
53.74
